ASSAY PROCEDURE: Permeability across human Caco2 cells
Type: ADME, cell-based
PROTOCOL CONDITIONS: Caco-2
READOUT KIND: Papp (×10⁻⁶ cm/s)
# output: bare number, implied unit ×10⁻⁶ cm/s

[ask] Fill blank: measured Papp of the compound CCOc1cc(NC(=O)C2(NC(=O)c3ccc4c(C5CCCC5)c(-c5ncc(Cl)cn5)n(C)c4c3)CCC2)ccc1/C=C/C(=O)O is ____.
[reply] 13

* * *

ASSAY PROCEDURE: AUC in rat plasma at 10 mg/kg, po using 0.5% Methyl cellulose, 0.3% Tween-80, 1% N-methylpyrrolidone in water vehicle
Type: ADME, organism-based
Parameters: dose 10 mg/kg, route oral
PROTOCOL CONDITIONS: plasma
READOUT KIND: AUC (µM·h)
# output: bare number, implied unit µM·h

CCOc1cc(NC(=O)C2(NC(=O)c3ccc4c(C5CCCC5)c(-c5ncc(Cl)cn5)n(C)c4c3)CCC2)ccc1/C=C/C(=O)OCOP(=O)(O)O 0.09

Note: attention shifts to another entry.
[ask] Fill blank: measured AUC of the molecule CCOc1cc(NC(=O)C2(NC(=O)c3ccc4c(C5CCCC5)c(-c5ncc(Cl)cn5)n(C)c4c3)CCC2)ccc1/C=C/C(=O)OC is ____.
[reply] 0.07

* * *

The reader will find reported Cmax values listed item by item below.
System: Rattus norvegicus
ASSAY PROCEDURE: Cmax in rat plasma assessed as (E)-3-(4-(1-(2-(5-chloropyrimidin-2-yl)-3-cyclopentyl-1-methyl-1H-indole-6-carboxamido)cyclobutanecarboxamido)-2-ethoxyphenyl)acrylic acid at 10 mg/kg, po using 0.5% Methyl cellulose, 0.3% Tween-80, 1% N-methylpyrrolidone in water vehicle
Format: ADME, organism-based
Set-up: dose 10 mg/kg, route oral
PROTOCOL CONDITIONS: in vivo
# output: bare number, implied unit nM

CCOc1cc(NC(=O)C2(NC(=O)c3ccc4c(C5CCCC5)c(-c5ncc(Cl)cn5)n(C)c4c3)CCC2)ccc1/C=C/C(=O)OCOP(=O)(O)O 4200

[ask] Fill blank: measured Cmax of the compound CCOc1cc(NC(=O)C2(NC(=O)c3ccc4c(C5CCCC5)c(-c5ncc(Cl)cn5)n(C)c4c3)CCC2)ccc1/C=C/C(=O)OC is ____.
[reply] 510

[ask] Fill blank: measured Cmax of the compound CCOc1cc(NC(=O)C2(NC(=O)c3ccc4c(C5CCCC5)c(-c5ncc(Cl)cn5)n(C)c4c3)CCC2)ccc1/C=C/C(=O)O is ____.
[reply] 7400

[ask] Fill blank: measured Cmax of the compound CCOc1cc(NC(=O)C2(NC(=O)c3ccc4c(C5CCCC5)c(-c5ncc(Cl)cn5)n(C)c4c3)CCC2)ccc1/C=C/C(=O)OCOP(=O)(O)OC(C)(C)C is ____.
[reply] 80

* * *

The reader will find reported t1/2 values listed item by item below.
ASSAY PROCEDURE: Prodrug conversion in human intestinal microsomes assessed as half life

CCOc1cc(NC(=O)C2(NC(=O)c3ccc4c(C5CCCC5)c(-c5ncc(Cl)cn5)n(C)c4c3)CCC2)ccc1/C=C/C(=O)OCC(=O)OCc1ccccc1 > 5 h

[ask] Fill blank: measured t1/2 of the compound CCOc1cc(NC(=O)C2(NC(=O)c3ccc4c(C5CCCC5)c(-c5ncc(Cl)cn5)n(C)c4c3)CCC2)ccc1/C=C/C(=O)OCC(=O)N1CCOCC1 is ____.
[reply] 3.42 h

[ask] Fill blank: measured t1/2 of the compound CCOc1cc(NC(=O)C2(NC(=O)c3ccc4c(C5CCCC5)c(-c5ncc(Cl)cn5)n(C)c4c3)CCC2)ccc1/C=C/C(=O)OCCC(C)C is ____.
[reply] > 5 h

The reported measurements were obtained from ChEMBL document CHEMBL3352534.
